Biological target: Serine/threonine-protein kinase Chk1 (Homo sapiens, UniProt O14757)
Sequence (O14757 whole entry): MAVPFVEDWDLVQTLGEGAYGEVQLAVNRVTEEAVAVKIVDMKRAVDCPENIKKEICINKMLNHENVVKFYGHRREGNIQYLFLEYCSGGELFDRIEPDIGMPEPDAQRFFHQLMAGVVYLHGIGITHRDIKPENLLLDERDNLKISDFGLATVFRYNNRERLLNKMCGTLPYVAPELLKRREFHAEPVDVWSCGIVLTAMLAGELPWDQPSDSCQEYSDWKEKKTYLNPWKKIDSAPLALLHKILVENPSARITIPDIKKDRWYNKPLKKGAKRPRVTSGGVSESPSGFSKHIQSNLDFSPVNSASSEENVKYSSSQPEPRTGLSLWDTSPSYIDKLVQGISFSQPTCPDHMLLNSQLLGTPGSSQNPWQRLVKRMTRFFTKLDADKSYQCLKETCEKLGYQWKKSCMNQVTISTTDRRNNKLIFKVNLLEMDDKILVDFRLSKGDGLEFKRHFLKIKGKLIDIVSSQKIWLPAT
Assay: Inhibiting Assay: The compounds of the invention were tested for activity against Chk-1 kinase using the materials and protocols set out below. Reaction Buffer: Base Reaction buffer: 20 mM Hepes (pH 7.5), 10 mM MgCl2, 1 mM EGTA, 0.02% Brij35, 0.02 mg/ml BSA, 0.1 mM Na3VO4, 2 mM DTT, 1% DMSO. Required cofactors are added individually to each kinase reaction Reaction Procedure:(i) Prepare indicated substrate in freshly prepared Base Reaction Buffer(ii) Deliver any required cofactors to the substrate solution above(iii) Deliver indicated kinase into the substrate solution and gently mix(iv) Deliver compounds in DMSO into the kinase reaction mixture(v) Deliver 33P-ATP (specific activity 0.01 μCi/μl final) into the reaction mixture to initiate the reaction.(vi) Incubate kinase reaction for 120 minutes at room temperature(vii) Reactions are spotted onto P81 ion exchange paper (Whatman #3698-915)(viii) Wash filters extensively in 0.1% phosphoric acid.(ix) Measure counts in scintillation counter.
pIC50: −log10 of the molar value.
MEASURED PROPERTY: pIC50

{"SMILES NOTATION": "N#Cc1cnc(NC(=O)Nc2ccc(CCNCc3ccc(F)cc3)c(Br)c2)cn1", "NUMBER": 7.72}
